Each entry below carries its reported Kp.
assayText: in vivo
assayContext: rat, in vivo, iv, AUC vitreous/plasma ratio
Procedure: Pharmacology. […] To measure retinal and vitreal penetration of TPT, CBP, and VCR, we injected each drug intravenously into 2-wk-old rats; this age corresponded to the stage of treatment in our xenograft model. Drug levels were measured in the vitreous, retina, and plasma at 3 min, 30 min, 1.5 h, 4 h, and 6 h after injection.

CC[C@]1(O)C[C@H]2CN(CCc3c([nH]c4ccccc34)[C@@](C(=O)OC)(c3cc4c(cc3OC)N(C=O)[C@H]3[C@@](O)(C(=O)OC)[C@H](OC(C)=O)[C@]5(CC)C=CCN6CC[C@]43[C@@H]65)C2)C1 1.1

Supply reported Kp belonging to this compound: `CC[C@@]1(O)C(=O)OCc2c1cc1n(c2=O)Cc2cc3c(CN(C)C)c(O)ccc3nc2-1`
0.38
